system: foxtail, giant (Setaria faberii); experiment: Test A preemergence, giant foxtail; assay type: in vivo; conditions: 500 g ai/ha, 0 to 100 scale (0 no effect, 100 complete control)
readout name: Plant response rating, Foxtail, Giant
Reply: number alone, nothing else.

CC1(COc2cccc(C3CNC(=O)C3C(=O)Nc3cccc(F)c3F)c2)COC1 (centres unmarked) ... 90
CN1CC(c2cccc(OC(F)(F)C(F)OC(F)(F)F)c2)C(C(=O)Nc2cccc(F)c2F)C1=O (centres unmarked) ... 90
CN1CC(c2cccc(Sc3ccccc3)c2)C(C(=O)Nc2ccccc2F)C1=O (single isomer, unassigned) ... 90
O=C1NCC(c2cccc(Oc3ccccn3)c2)C1C(=O)Nc1ccc(F)c(F)c1F (centres unmarked) ... 90

Continue with the next molecule.
The measured Plant response rating, Foxtail, Giant associated with O=C1NCC(c2cccc(Cn3ccc(C(F)(F)F)n3)c2)C1C(=O)Nc1ccc(F)cc1F (centres unmarked) reads 0

From: patent US10405547B2
